# ASSAYED TARGET: human FPRL2 (Homo sapiens)
# Sequence (P25089 whole entry): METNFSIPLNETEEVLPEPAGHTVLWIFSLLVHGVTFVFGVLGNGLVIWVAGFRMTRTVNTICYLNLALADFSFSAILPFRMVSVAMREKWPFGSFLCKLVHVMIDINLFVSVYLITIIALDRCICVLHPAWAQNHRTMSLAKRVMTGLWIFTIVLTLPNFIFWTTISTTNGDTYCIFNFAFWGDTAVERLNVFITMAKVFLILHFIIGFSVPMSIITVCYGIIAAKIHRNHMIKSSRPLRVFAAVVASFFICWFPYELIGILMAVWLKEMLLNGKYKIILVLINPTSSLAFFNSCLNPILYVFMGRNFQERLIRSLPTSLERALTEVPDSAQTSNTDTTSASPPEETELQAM
# MEASUREMENT PROTOCOL: Intracellular calcium measurements (FLIPR), agonistic activity in HEK293-hFPRL2-Gα16 cells
# PARTICULARS: Fluo-4 calcium FLIPR, normalized to GLY14-Humanin 100 nM
MEASURE NAME: log10 of EC50 (log10 of the value in nM)

- COMPOUND: "O=C(NCCCCN1CCCC1)[C@H]1[C@H](C(=O)Nc2ccc(Br)nc2)[C@@H]2C=C[C@H]1C21CC1 [Example 258]"
  ASSAYED TARGET: "human FPRL2 (Homo sapiens)"
  log10 of EC50: 2.24
- COMPOUND: "CCN(CC)CCCCNC(=O)[C@H]1[C@H](C(=O)Nc2ncc(Br)s2)[C@@H]2C=C[C@H]1C21CC1 (racemic) [Example 270]"
  ASSAYED TARGET: "human FPRL2 (Homo sapiens)"
  log10 of EC50: 2.60
- COMPOUND: "O=C(NCCCCN1CCCC1)[C@H]1[C@H](C(=O)NCCc2ccc(Cl)cc2)[C@@H]2C=C[C@H]1C21CC1 [Example 387]"
  ASSAYED TARGET: "human FPRL2 (Homo sapiens)"
  log10 of EC50: 1.41
- COMPOUND: "O=C(NC1CCNCC1)[C@H]1[C@H](C(=O)Nc2ncc(Br)s2)[C@@H]2C=C[C@H]1C21CC1 [Example 323]"
  ASSAYED TARGET: "human FPRL2 (Homo sapiens)"
  log10 of EC50: 3.67
- COMPOUND: "COCCC(=O)N(C)C[C@H]1[C@H](C(=O)Nc2ccc(Br)cc2)[C@@H]2C=C[C@H]1C21CC1 (racemic) [Example 175]"
  ASSAYED TARGET: "human FPRL2 (Homo sapiens)"
  log10 of EC50: 3.86
- COMPOUND: "O=C(NCCCc1nc2ccccc2[nH]1)[C@H]1[C@H](C(=O)Nc2ccc(Br)cc2)[C@@H]2C=C[C@H]1C21CC1 (racemic) [Example 32]"
  ASSAYED TARGET: "human FPRL2 (Homo sapiens)"
  log10 of EC50: 3.52
- COMPOUND: "CN(C)CC(=O)NC[C@H]1[C@H](C(=O)Nc2ccc(Br)cc2)[C@@H]2C=C[C@H]1C21CC1 (racemic) [Example 181]"
  ASSAYED TARGET: "human FPRL2 (Homo sapiens)"
  log10 of EC50: 3.31
- COMPOUND: "NCC1CCC(NC(=O)C2C(C(=O)Nc3ccc(Br)cc3)C3C=CC2C32CC2)CC1 (single isomer, unassigned) [Example 420]"
  ASSAYED TARGET: "human FPRL2 (Homo sapiens)"
  log10 of EC50: 3.06
- COMPOUND: "NCc1ccc(CNC(=O)[C@H]2[C@H](C(=O)Nc3ccc(Br)cc3)[C@@H]3C=C[C@H]2C32CC2)cc1 (racemic) [Example 38]"
  ASSAYED TARGET: "human FPRL2 (Homo sapiens)"
  log10 of EC50: 3.19
- COMPOUND: "O=C(NCCCCN1CCCC1)[C@H]1[C@H](C(=O)NCc2ccc(F)cc2)[C@@H]2C=C[C@H]1C21CC1 (racemic) [Example 231]"
  ASSAYED TARGET: "human FPRL2 (Homo sapiens)"
  log10 of EC50: 2.20
- COMPOUND: "O=C(NCCCCN1CCCC1)[C@H]1[C@H](C(=O)NCc2cnc(Br)s2)[C@@H]2C=C[C@H]1C21CC1 [Example 312]"
  ASSAYED TARGET: "human FPRL2 (Homo sapiens)"
  log10 of EC50: 2.32
- COMPOUND: "CN(C)CCN(C)C(=O)[C@H]1[C@H](C(=O)Nc2ccc(Br)cc2)[C@@H]2C=C[C@H]1C21CC1 (racemic) [Example 45]"
  ASSAYED TARGET: "human FPRL2 (Homo sapiens)"
  log10 of EC50: 3.62
- COMPOUND: "O=C(NCCCCN1CCCC1)[C@H]1[C@H](C(=O)Nc2ncc(Br)s2)[C@@H]2CC[C@H]1C21CC1 [Example 238]"
  ASSAYED TARGET: "human FPRL2 (Homo sapiens)"
  log10 of EC50: 2.15
- COMPOUND: "NCc1ccc(CNC(=O)[C@H]2[C@H](C(=O)NCc3ccc(Br)cc3)[C@@H]3C=C[C@H]2C32CC2)cc1 (racemic) [Example 309]"
  ASSAYED TARGET: "human FPRL2 (Homo sapiens)"
  log10 of EC50: 3.13
- COMPOUND: "CN(C)CCNC(=O)[C@H]1[C@H](C(=O)NCc2ccc(Br)cc2)[C@@H]2C=C[C@H]1C21CC1 (racemic) [Example 274]"
  ASSAYED TARGET: "human FPRL2 (Homo sapiens)"
  log10 of EC50: 3.07
- COMPOUND: "CC(=O)c1cccc(NC(=O)[C@H]2[C@H](C(=O)NCCCCN3CCCC3)[C@H]3C=C[C@@H]2C32CC2)c1 (racemic) [Example 352]"
  ASSAYED TARGET: "human FPRL2 (Homo sapiens)"
  log10 of EC50: 2.98
- COMPOUND: "O=C(NCCCCN1CCCC1)[C@H]1[C@H](C(=O)NCc2ccc(F)c(Br)c2)[C@@H]2C=C[C@H]1C21CC1 (racemic) [Example 354]"
  ASSAYED TARGET: "human FPRL2 (Homo sapiens)"
  log10 of EC50: 2.35
- COMPOUND: "CC(C)CCN1CCC(NC(=O)[C@H]2[C@H](C(=O)Nc3ccc(Br)cc3)[C@@H]3C=C[C@H]2C32CC2)CC1 (racemic) [Example 69]"
  ASSAYED TARGET: "human FPRL2 (Homo sapiens)"
  log10 of EC50: 2.85
- COMPOUND: "CNCCNC(=O)[C@H]1[C@H](C(=O)Nc2ncc(Br)s2)[C@@H]2C=C[C@H]1C21CC1 (racemic) [Example 301]"
  ASSAYED TARGET: "human FPRL2 (Homo sapiens)"
  log10 of EC50: 3.43
- COMPOUND: "O=C(NCCCCN1CCCC1)[C@H]1[C@H](C(=O)NCc2ccc(F)cc2Br)[C@@H]2C=C[C@H]1C21CC1 (racemic) [Example 353]"
  ASSAYED TARGET: "human FPRL2 (Homo sapiens)"
  log10 of EC50: 2.41
- COMPOUND: "CC(C)CNC(=O)[C@H]1[C@H](C(=O)Nc2ncc(Br)s2)[C@@H]2CC[C@H]1C21CC1 [Example 331]"
  ASSAYED TARGET: "human FPRL2 (Homo sapiens)"
  log10 of EC50: 3.92
- COMPOUND: "O=C(NCCCCN1CCCC1)C1C(C(=O)Nc2ccc(Cl)nc2)C2C=CC1C21CC1 (racemic) [Example 116]"
  ASSAYED TARGET: "human FPRL2 (Homo sapiens)"
  log10 of EC50: 2.95
- COMPOUND: "Cc1onc(-c2ccccc2)c1CNC(=O)[C@H]1[C@H](C(=O)Nc2ccc(Br)cc2)[C@@H]2C=C[C@H]1C21CC1 (racemic) [Example 101]"
  ASSAYED TARGET: "human FPRL2 (Homo sapiens)"
  log10 of EC50: 2.66
- COMPOUND: "O=C(NCCCCN1CCCC1)[C@H]1[C@H](C(=O)NCc2cc(Cl)nc(Cl)c2)[C@@H]2C=C[C@H]1C21CC1 (racemic) [Example 367]"
  ASSAYED TARGET: "human FPRL2 (Homo sapiens)"
  log10 of EC50: 2.81
- COMPOUND: "O=C(NCCCCN1CCCC1)[C@H]1[C@H](C(=O)NCCOc2ccccc2)[C@@H]2C=C[C@H]1C21CC1 (racemic) [Example 134]"
  ASSAYED TARGET: "human FPRL2 (Homo sapiens)"
  log10 of EC50: 2.79
